- protocol.details: qHTS of pediatric cancer cell lines to identify multiple opportunities for drug repurposing: Primary screen for Saos-2 cells (AID 1347097); also: nearly all actives have a fitted effect of over 40% in size
- condition.notes: Saos-2 viability, CellTiter-Glo ATP luminescence, 48 h; series mostly up to 46 µM
- Method: Drug repurposing or repositioning has been offered as a strategy for drug development in oncology programs. This approach has special potential for childhood cancers and other rare or orphan diseases, where the expected return on new drug development has been a disincentive to pharmaceuticals. […] We employed a titration-based paradigm (quantitative high-throughput screening or qHTS), where all compounds were tested at multiple concentrations for their effect on cell viability. […]
Records with an inconclusive call do not appear. Activity calls are given as the source filed them. Calls follow the shape of the dose curve; as a rule, active = well fitted cell-killing curve with a large enough effect; inconclusive = small, poorly fitted or top-dose-only effect; inactive = no such curve, though single readings can be large or run the other way.
Classes used: label 1 for active, label 0 for inactive

* CCO/C([O-])=N/c1c[n+](N2CCOCC2)no1 | label 0
* CC(C)(C)c1ccc(C(=O)CCCN2CCC(OC(c3ccccc3)c3ccccc3)CC2)cc1 | label 1
* COCCc1ccc(OCC(O)CNC(C)C)cc1 (centres undefined) | label 0
* CO[C@@]1(NC(=O)CSCC#N)C(=O)N2C(C(=O)O)=C(CSc3nnnn3C)CS[C@@H]21 | label 0
* CC(C)NCC(O)c1cc(O)cc(O)c1 (centres undefined) | label 0
* CCN1CCc2nc(N)oc2CC1 | label 0
* CC(C)(C)NCC(O)c1cc(O)cc(O)c1 (centres undefined) | label 0
* CC(N=C(NC#N)Nc1ccncc1)C(C)(C)C (centres undefined) | label 0
* CCOC(=O)C1=C(C)NC(C)=C(C(=O)OC)C1c1cccc(Cl)c1Cl (centres undefined) | label 0
* CCCCOCCOCCOCc1cc2c(cc1CCC)OCO2 | label 0
* CC(=O)OCC1=C(C(=O)O)N2C(=O)[C@@H](NC(=O)Cc3cccs3)[C@H]2SC1 | label 0
* CCCCNC(=O)NS(=O)(=O)c1ccc(C)cc1 | label 0
* COc1ccc(CN(CCN(C)C)c2ccccn2)cc1 | label 0
* c1cnc(N2CCN(Cc3ccc4c(c3)OCO4)CC2)nc1 | label 0
* CN(C)C(=O)Oc1ccc[n+](C)c1 | label 0
* CC(C(=O)O)c1ccc(CC2CCCC2=O)cc1 (centres undefined) | label 0
* NC(=O)c1ncn([C@@H]2O[C@H](CO)[C@@H](O)[C@H]2O)c1O | label 0
* CCCCNc1c(C(=O)OCC)c(C)nc2c1cnn2CC | label 1
* CN/C(=C\[N+](=O)[O-])NCCSCc1ccc(CN(C)C)o1 | label 0
* NC(=O)c1cn(Cc2c(F)cccc2F)nn1 | label 0
* NS(=O)(=O)c1cc2c(cc1Cl)NC(C1CC3C=CC1C3)NS2(=O)=O (centres undefined) | label 0
* CC(=O)[C@]1(O)Cc2c(O)c3c(c(O)c2[C@@H](O[C@H]2C[C@H](N)[C@H](O)[C@H](C)O2)C1)C(=O)c1ccccc1C3=O | label 1
* NC(N)=N/N=C/c1c(Cl)cccc1Cl | label 0
* CC(C)NNC(=O)c1ccncc1 | label 0

Origin of the recorded values: PubChem BioAssay (NCATS)
